Each entry below carries its recorded MOR EC50.
target: µ-opioid receptor (MOR), Human-ORPM1 (human, UniProt P35372 1-400); test: cell-based or functional assay
Sequence (P35372 whole entry): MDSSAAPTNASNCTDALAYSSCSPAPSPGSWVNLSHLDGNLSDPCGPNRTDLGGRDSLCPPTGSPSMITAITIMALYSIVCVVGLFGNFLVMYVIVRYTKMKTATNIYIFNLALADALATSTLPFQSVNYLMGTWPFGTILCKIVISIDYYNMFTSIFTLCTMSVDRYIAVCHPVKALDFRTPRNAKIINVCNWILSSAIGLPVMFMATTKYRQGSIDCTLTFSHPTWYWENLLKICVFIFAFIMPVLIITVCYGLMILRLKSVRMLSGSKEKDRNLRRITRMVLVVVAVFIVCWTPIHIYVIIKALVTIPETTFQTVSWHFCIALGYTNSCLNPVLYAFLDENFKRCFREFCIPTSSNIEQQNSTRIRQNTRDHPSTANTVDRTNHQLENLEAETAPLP
Square brackets hold non-standard residues; d marks the D form. Dmt = Cc1cc(O)cc(C)c1C[C@H](N)C(=O)O; β3hF = N[C@H](CC(=O)O)Cc1ccccc1; NMeL = CN[C@@H](CC(C)C)C(=O)O; NMeNva = CCC[C@H](NC)C(=O)O; NMeV = CN[C@H](C(=O)O)C(C)C
measured_attribute: MOR EC50

H-[Dmt][dD]G[β3hF][NMeV]-OH (SMILES Cc1cc(O)cc(C)c1C[C@H](N)C(=O)N[C@H](CC(=O)O)C(=O)NCC(=O)N[C@H](CC(=O)N(C)[C@H](C(=O)O)C(C)C)Cc1ccccc1) [H-DMT-(D)Asp-G-bhF-N(Me)-Val-OH] ... ≤ 1 nM
H-[Dmt][dD]G[β3hF][NMeL]-OH (SMILES Cc1cc(O)cc(C)c1C[C@H](N)C(=O)N[C@H](CC(=O)O)C(=O)NCC(=O)N[C@H](CC(=O)N(C)[C@@H](CC(C)C)C(=O)O)Cc1ccccc1) [H-DMT-(D)Asp-G-bhF-N(Me)-Leu-OH] ... ≤ 1 nM
H-[Dmt][dD]G[β3hF][NMeNva]-OH (SMILES CCC[C@@H](C(=O)O)N(C)C(=O)C[C@H](Cc1ccccc1)NC(=O)CNC(=O)[C@@H](CC(=O)O)NC(=O)[C@@H](N)Cc1c(C)cc(O)cc1C) [H-DMT-(D)Asp-G-bhF-N(Me)-Nva-OH] ... ≤ 1 nM
